# target of assay: UniProt:P59336
# Sequence (P59336 whole entry): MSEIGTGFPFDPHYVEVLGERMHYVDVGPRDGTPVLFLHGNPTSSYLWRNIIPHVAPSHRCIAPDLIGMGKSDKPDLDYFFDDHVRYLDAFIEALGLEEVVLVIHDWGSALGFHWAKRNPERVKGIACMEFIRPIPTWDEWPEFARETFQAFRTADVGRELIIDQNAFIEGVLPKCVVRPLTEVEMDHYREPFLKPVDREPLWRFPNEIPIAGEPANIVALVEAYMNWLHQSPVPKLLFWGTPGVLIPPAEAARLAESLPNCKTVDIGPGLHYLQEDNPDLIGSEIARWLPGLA
# test summary: Substrate profile of partially purified TDTM-003 dehalogenase
# Format: biochemical, Rhodococcus species TDTM-003
# stated conditions: corrected for non-enzymatic hydrolysis
# Procedure: Hydrolytic dehalogenase enzyme activity was evaluated by adding an appropriate amount of cell free extract or enzyme preparation to 5.0 mL of 100 mM glycine buffer, pH=9.0 in a 7 mL glass vial. […] Rates were determined after correcting for non-enzymatic hydrolysis with an appropriate blank. […] Frozen pellets from 2 liters of culture were thawed into 150 mL of 10 mM Tris sulfate buffer, pH=7.5 containing 1 mM disodium EDTA. […] Overall sonication efficiency was monitored by absorbence at 280 nm. […]
measurement type: Relative Rate of Halogen Release, 1-Chlorobutane = 100

- molecule: "CCCCCBr"
  meas value: 203.000
- molecule: "CCCCl"
  meas value: 33.000
- molecule: "ClCC(Cl)CCl"
  meas value: 18.000
- molecule: "CCCCBr"
  meas value: 265.000
- molecule: "BrCCCCCCBr"
  meas value: 244.000
- molecule: "CCC(C)Cl (stereo not shown)"
  meas value: 20.000
- molecule: "ClCCCCCl"
  meas value: 261.000
- molecule: "BrCCCBr"
  meas value: 771.000
- molecule: "ClCCCCCCCl"
  meas value: 252.000
- molecule: "CC(Br)C(C)Br (stereo not shown)"
  meas value: 846.000
- molecule: "CCCCCCl"
  meas value: 81.000
- molecule: "CCCCCCCCCCBr"
  meas value: 98.000
- molecule: "CCCCCCCCBr"
  meas value: 414.000
- molecule: "BrCCBr"
  meas value: 1318.000
- molecule: "BrCCCCCCCCBr"
  meas value: 173.000
- molecule: "CC(C)Br"
  meas value: 55.000
- molecule: "CC(C)(Cl)CCl"
  meas value: 0.000
- molecule: "CC(Cl)C(C)Cl (stereo not shown)"
  meas value: 19.000
- molecule: "CCC(Cl)CCl (stereo not shown)"
  meas value: 33.000
- molecule: "ClCCCCCCl"
  meas value: 173.000
- molecule: "CCCCCCBr"
  meas value: 162.000
- molecule: "CC(Br)CBr (stereo not shown)"
  meas value: 900.000
- molecule: "CCC(C)Br (stereo not shown)"
  meas value: 123.000
- molecule: "CCC(Br)CBr (stereo not shown)"
  meas value: 756.000
- molecule: "CCCCCCCCCl"
  meas value: 58.000
- molecule: "CC(C)(Cl)Cl"
  meas value: 23.000
- molecule: "ClCCCl"
  meas value: 4.400
- molecule: "ClCCCCl"
  meas value: 253.000
- molecule: "ClCCCCCCCCCCCl"
  meas value: 52.000
- molecule: "CC(Cl)CCl (stereo not shown)"
  meas value: 5.800
- molecule: "CC(Br)CCBr (stereo not shown)"
  meas value: 155.000
- molecule: "CCCBr"
  meas value: 459.000
- molecule: "ClC1CCCCC1"
  meas value: 7.500
- molecule: "CCCCCCCCCCCl"
  meas value: 28.000
- molecule: "ClCCBr"
  meas value: 751.000
- molecule: "CC(Cl)CCCl (stereo not shown)"
  meas value: 81.000
- molecule: "CCCCCCCCl"
  meas value: 130.000
- molecule: "CCCCCCCl"
  meas value: 119.000
- molecule: "BrCCCCBr"
  meas value: 294.000
- molecule: "CCCCCl"
  meas value: 100.000
